SUBJECT_OF_TEST: T1, Ire1KR32 (Saccharomyces cerevisiae? ("yeast"), UniProt P32361 641-1115)
T1 sequence: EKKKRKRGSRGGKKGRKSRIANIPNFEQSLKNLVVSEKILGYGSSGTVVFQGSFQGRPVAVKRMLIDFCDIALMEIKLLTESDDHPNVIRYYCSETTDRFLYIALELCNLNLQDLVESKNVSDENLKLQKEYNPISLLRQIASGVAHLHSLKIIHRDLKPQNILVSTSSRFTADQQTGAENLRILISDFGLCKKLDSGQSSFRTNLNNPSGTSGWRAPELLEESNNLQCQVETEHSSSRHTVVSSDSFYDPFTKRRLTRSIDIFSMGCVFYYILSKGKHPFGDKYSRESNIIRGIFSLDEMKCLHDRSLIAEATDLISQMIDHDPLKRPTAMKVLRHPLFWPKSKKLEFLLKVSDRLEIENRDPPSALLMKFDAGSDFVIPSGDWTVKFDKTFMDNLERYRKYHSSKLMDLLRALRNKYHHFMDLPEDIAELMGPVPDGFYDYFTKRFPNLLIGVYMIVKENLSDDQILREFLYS
PROTOCOL_TEXT: competition (inhibition of 32P-HP21 cleavage); apparent Ki; 2 mM Mg2+, 2 mM ADP, 3 uM Ire1KR32; 20 mM HEPES pH 7.4, 70 mM NaCl, 5% glycerol, 2 mM Mg(CH3COO)2, 2 mM ADP, 4 mM DTT, 30 C
MEASUREMENT_SETUP: protein: recombinant; tags: GST removed with Prescission protease; label: none; single strand
MEASURE_NAME: pKi
Here pKi is given on a logarithmic scale as minus log10 of the concentration in mol/L.

According to the records, this binder CCGCAG (ssDNA, 2'-deoxy throughout) [dCdCdGdCdAdG (2'-deoxy-CCGCAG)] displays pKi of 3.70
